- target.under.test: PIM2 (Homo sapiens, UniProt Q9P1W9)
- Sequence (Q9P1W9 whole entry): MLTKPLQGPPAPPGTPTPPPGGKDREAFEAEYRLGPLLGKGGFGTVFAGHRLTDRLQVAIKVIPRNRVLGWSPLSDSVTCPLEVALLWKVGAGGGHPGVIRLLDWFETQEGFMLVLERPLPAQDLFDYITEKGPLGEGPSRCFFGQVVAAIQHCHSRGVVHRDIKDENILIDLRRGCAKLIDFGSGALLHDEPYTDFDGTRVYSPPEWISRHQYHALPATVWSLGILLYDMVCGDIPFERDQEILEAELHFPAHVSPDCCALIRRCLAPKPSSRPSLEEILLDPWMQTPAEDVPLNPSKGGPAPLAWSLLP
- assay.comment: Pim 2 AlphaScreen assay (high ATP)
- Assay type: biochemical
- applied.conditions: read-out: Pim2 IC50
endpoint: IC50 (nM)
Numbers only, in nM.

Below, 6 molecules whose answers are already recorded.
CC[C@H]1O[C@@H](c2ccncc2NC(=O)c2ccc(F)c(-c3c(F)cccc3F)n2)C[C@@H](N)[C@@H]1O [Example 331]	11.8
C[C@@H]1O[C@H](c2ccncc2NC(=O)c2nc(-c3ccccc3)cnc2N)C[C@H](N)[C@@]1(C)O [Example 229]	3310
CC[C@]1(O)[C@H](N)C[C@H](c2ccncc2NC(=O)c2nc(-c3c(F)cccc3F)ncc2N)O[C@@H]1C [Example 239]	24
CC(C)(C)[C@@H]1O[C@H](c2ccncc2NC(=O)c2ccc(F)c(-c3c(F)cccc3F)n2)C[C@@H](N)[C@H]1O [Example 279]	27.1
CC(C)[C@H]1O[C@@H](c2ccncc2NC(=O)c2ccnc(-c3c(F)cccc3F)n2)C[C@@H](N)[C@@H]1O [Example 293]	154
CC(=O)Nc1ccc(F)c(-c2nc(C(=O)Nc3cnccc3C3C[C@@H](N)[C@H](O)[C@@H](C(C)C)O3)ccc2F)c1F (stereo in doubt) [Example 307]	50.1

Measured IC50 of CC[C@H]1O[C@@H](c2ccncc2NC(=O)c2nc(-c3ccccc3)cnc2N)C[C@@H](N)[C@@H]1O [Example 343] : 49.1
